- Assayed Target: Voltage-dependent N-type calcium channel subunit alpha-1B (Homo sapiens) (UniProt Q00975)
- Sequence (Q00975 whole entry, looked up): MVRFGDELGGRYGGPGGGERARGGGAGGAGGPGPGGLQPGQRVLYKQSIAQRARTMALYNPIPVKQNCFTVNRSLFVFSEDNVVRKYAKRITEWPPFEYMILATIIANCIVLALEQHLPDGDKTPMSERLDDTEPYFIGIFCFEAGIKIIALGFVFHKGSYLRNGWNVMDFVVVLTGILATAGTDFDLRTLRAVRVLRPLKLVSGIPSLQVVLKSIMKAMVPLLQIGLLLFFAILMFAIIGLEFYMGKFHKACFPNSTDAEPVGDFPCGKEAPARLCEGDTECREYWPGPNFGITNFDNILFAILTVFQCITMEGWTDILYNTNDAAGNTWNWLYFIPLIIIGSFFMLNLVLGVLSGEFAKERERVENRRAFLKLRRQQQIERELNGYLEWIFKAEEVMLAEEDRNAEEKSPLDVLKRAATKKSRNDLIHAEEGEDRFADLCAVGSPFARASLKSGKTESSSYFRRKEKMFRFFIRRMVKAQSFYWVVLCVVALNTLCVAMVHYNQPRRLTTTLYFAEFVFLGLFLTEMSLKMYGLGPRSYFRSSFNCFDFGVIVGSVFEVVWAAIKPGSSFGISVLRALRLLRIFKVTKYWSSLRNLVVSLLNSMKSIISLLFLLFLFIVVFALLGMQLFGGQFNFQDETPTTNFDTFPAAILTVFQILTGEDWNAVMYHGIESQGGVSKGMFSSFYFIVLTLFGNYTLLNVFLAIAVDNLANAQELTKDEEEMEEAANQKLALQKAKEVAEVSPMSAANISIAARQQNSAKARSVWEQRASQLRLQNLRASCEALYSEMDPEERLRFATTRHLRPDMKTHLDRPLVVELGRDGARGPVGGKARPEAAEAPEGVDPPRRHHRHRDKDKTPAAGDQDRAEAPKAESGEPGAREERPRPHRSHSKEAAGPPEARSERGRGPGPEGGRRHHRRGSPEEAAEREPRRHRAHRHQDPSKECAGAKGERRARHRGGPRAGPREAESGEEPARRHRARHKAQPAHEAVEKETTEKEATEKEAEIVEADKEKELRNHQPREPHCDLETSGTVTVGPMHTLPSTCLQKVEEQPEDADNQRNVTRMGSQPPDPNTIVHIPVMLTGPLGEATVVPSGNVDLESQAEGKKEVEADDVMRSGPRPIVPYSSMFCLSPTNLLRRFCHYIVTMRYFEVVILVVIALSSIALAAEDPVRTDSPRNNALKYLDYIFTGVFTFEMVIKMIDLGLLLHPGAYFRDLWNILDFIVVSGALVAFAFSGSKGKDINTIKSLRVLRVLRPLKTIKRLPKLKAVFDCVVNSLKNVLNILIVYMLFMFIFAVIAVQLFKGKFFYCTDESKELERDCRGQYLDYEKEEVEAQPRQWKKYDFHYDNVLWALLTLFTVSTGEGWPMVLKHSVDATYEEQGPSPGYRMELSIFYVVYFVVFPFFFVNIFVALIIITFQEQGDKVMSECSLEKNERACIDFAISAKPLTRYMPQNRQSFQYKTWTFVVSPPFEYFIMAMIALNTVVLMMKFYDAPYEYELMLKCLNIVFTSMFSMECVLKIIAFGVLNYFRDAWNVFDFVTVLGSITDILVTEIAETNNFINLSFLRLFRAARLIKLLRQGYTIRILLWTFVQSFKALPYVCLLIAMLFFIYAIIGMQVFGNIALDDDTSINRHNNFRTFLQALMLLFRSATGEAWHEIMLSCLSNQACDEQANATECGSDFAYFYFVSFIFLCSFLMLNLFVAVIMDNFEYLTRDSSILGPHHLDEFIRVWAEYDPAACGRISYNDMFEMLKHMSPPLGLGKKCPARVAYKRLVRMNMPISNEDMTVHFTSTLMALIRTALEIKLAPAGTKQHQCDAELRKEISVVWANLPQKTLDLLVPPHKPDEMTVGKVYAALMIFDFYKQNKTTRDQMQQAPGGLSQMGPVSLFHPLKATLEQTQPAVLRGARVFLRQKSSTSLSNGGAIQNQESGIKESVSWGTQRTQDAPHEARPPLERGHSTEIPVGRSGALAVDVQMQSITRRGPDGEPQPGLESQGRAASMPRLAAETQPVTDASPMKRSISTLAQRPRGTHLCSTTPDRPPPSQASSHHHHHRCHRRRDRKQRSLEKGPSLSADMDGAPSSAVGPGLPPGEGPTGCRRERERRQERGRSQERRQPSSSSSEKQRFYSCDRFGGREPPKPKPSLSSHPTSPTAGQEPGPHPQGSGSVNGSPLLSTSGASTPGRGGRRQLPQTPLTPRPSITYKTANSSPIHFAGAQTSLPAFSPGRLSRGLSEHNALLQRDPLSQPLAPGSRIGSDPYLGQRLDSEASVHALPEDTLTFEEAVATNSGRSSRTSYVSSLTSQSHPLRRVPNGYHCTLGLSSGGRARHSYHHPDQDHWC
- Protocol Description: Inhibition of N type calcium channel subunit Alpha-1B at 10 uM in HEK293 cells
- Type: cell-based
Reported Endpoint: inhibition

> print(dat)
                                   compound  result
1  CCN1C(N2CCCCC2)=Nc2ccccc2C1CC(=O)NCc1ccccc1 (stereo not given)    9.3%
2  Nc1ccc(CNC(=O)CC2c3ccccc3N=C(N3CCCCC3)N2c2ccccc2)cc1 (stereo not given)    8.9%
3  CCN1C(N(C)C)=Nc2ccccc2C1CC(=O)NCc1ccc(NS(=O)(=O)c2ccc(C)cc2)cc1 (stereo not given)    8.9%
4  Cc1ccc(S(=O)(=O)Nc2ccc(CNC(=O)CC3c4ccccc4N=C(N4CCCCC4)N3c3ccccc3)cc2)cc1 (stereo not given)   14.1%
5  CCN1C(N(C)C)=Nc2ccccc2C1CC(=O)NCc1ccccc1 (stereo not given)   27.6%
